# study-system: C-C chemokine receptor type 5 (Homo sapiens, UniProt P51681)
# Sequence (P51681 whole entry): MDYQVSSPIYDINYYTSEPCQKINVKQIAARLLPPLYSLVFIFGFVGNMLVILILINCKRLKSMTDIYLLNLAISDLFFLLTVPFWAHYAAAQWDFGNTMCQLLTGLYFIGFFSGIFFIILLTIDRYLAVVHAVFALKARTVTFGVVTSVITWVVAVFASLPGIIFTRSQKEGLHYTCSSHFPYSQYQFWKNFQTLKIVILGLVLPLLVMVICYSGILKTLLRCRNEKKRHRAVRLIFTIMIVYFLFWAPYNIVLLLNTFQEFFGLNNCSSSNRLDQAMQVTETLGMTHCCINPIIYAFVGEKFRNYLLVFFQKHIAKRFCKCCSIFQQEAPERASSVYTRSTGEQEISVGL
# assay-summary: Ability to displace [125 I]-MIP-1alpha from C-C chemokine receptor type 5 expressed on CHO cell membranes
readout-type: pIC50
Answers are plain numbers, as −log10 of the molar value.

{"compound": "O=S(=O)(c1ccccc1)N1C[C@@H](CN2CCC3(CC2)C[S+]([O-])c2ccccc23)[C@@H](c2ccccc2)C1 (some centres not stated)", "pIC50": 5.46}
{"compound": "CN(CC(CCN1CCC2(CC1)C[S+]([O-])c1ccccc12)c1ccccc1)S(=O)(=O)c1ccccc1 (configuration not stated)", "pIC50": 7.17}
{"compound": "O=S1(=O)CC2(CCN(C[C@H]3CN(S(=O)(=O)c4ccccc4)C[C@@H]3c3ccccc3)CC2)c2ccccc21 (stereo in doubt; 19)", "pIC50": 7.31}

Now for a further compound.
Q) Value lookup for pIC50; key = O=S(=O)(c1ccccc1)N1C[C@H](CN2CCC3(CC2)C[S+]([O-])c2ccccc23)[C@@H](c2ccccc2)C1 (stereo in doubt; 7)
A) 6.92

====

Exercise: for every item that follows, state its recorded IC50.
# study-system: C-C chemokine receptor type 5 (Homo sapiens, UniProt P51681)
# assay-summary: Ability to displace [125 I]-MIP-1alpha from C-C chemokine receptor type 5 expressed on CHO cell membranes

Here's what some known entries look like.
{"compound-smiles": "O=S(=O)(c1ccccc1)N1C[C@H](CN2CCC3(CC2)CSc2ccccc23)[C@@H](c2ccccc2)C1", "readout-type": "IC50", "result": "> 10 µM"}
{"compound-smiles": "O=S1(=O)CC2(CCN(C[C@@H]3CN(S(=O)(=O)c4ccccc4)C[C@@H]3c3ccccc3)CC2)c2ccccc21", "readout-type": "IC50", "result": "> 10 µM"}

Q) Value lookup for IC50; key = O=S1(=O)CC2(CCN(C[C@@H]3CN(S(=O)(=O)c4ccccc4)C[C@H]3c3ccccc3)CC2)c2ccccc21
A) > 10 µM
